Just for reference, patent US7868020B2 is where these values come from.

Reported EC50 is given for each of the following compounds.
Molecular target: Alpha 2C (Homo sapiens, UniProt P18825)
Sequence (P18825 whole entry): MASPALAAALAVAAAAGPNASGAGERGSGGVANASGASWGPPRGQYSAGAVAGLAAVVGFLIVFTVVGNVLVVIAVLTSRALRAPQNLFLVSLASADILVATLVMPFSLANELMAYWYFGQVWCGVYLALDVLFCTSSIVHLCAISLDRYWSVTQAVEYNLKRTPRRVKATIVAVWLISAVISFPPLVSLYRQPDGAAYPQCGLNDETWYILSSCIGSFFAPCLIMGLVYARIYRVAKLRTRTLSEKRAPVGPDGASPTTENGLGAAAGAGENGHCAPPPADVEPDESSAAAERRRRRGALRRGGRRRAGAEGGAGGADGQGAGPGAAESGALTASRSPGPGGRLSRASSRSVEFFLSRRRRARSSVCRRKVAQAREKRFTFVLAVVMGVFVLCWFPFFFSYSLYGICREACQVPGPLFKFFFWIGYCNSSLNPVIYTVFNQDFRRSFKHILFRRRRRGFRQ
Test: RSAT assay, Alpha 2C receptor
Details: RSAT, transfected NIH-3T3 cells, coexpressed Gq/i5
Answer format: numeric, µM implied, no suffix.

Entry under test: Cc1[nH]cnc1CC1CCc2cccnc2C1 (centres unmarked) [drawing 15] . Its EC50 was 0.207

Entry under test: Cc1[nH]cnc1CC1CCc2cccnc2C1 (centres unmarked) [drawing 16] . Its EC50 was 0.366
